Origin of measurements: paper PMC9869995

- Test system: P-gp
- Measurement Protocol: P-gp content in MCF-7/ADR cell lysate by ELISA
- Type: cell-based, human
- Applied Conditions: Conc. 25 µM, MCF-7/ADR lysate, 48 h

| Compound | Reading Unit | %Reduction of P-gp expression |
| --- | --- | --- |
| COc1ccc2ccc3c(c2c1)C(c1cccc(Cl)c1)C(C#N)=C(N)O3 (stereo not drawn) [4c] | % | 40 |
| COc1ccc2ccc3c(c2c1)C(c1ccc(F)cc1F)C(C#N)=C(N)O3 (stereo not drawn) [4k] | % | 28 |
| COc1ccc2ccc3c(c2c1)C(c1ccc(OC)c(OC)c1)C(C#N)=C(N)O3 (stereo not drawn) [4w] | % | 36 |
| COc1ccc2ccc3c(c2c1)C(c1ccccc1Cl)C(C#N)=C(N)O3 (stereo not drawn) [4b] | % | 42 |
| COc1ccc2ccc3c(c2c1)C(c1ccc(Cl)cc1)C(C#N)=C(N)O3 (stereo not drawn) [4d] | % | 60 |
| COc1ccc2ccc3c(c2c1)C(c1ccc(Cl)c(Cl)c1)C(C#N)=C(N)O3 (stereo not drawn) [4q] | % | 32 |

====

Item-by-item account of pIC50
- System: MCF-7
- Measurement Protocol: MTT cell viability assay, MCF-7
- Type: cell-based
- Applied Conditions: Homo sapiens, MCF7, 24 h incubation, mean ± standard error
pIC50: −log10 of the molar value.

| Compound | pIC50 |
| --- | --- |
| COc1ccc2ccc3c(c2c1)C(c1ccc(Br)cc1)C(C#N)=C(N)O3 (stereo not shown) | 5.25 |
| COc1ccc2ccc3c(c2c1)C(c1cccc(Br)c1)C(C#N)=C(N)O3 (stereo not shown) | 4.16 |
| COc1ccc2ccc3c(c2c1)C(c1cc(OC)c(OC)c(OC)c1)C(C#N)=C(N)O3 (stereo not shown) | 4.58 |
| COc1ccc2ccc3c(c2c1)C(c1cccc(Cl)c1)C(C#N)=C(N)O3 (stereo not shown) | 5.07 |
| COc1ccc2ccc3c(c2c1)C(c1ccc(Cl)cc1)C(C#N)=C(N)O3 (stereo not shown) | 6.22 |
| COc1ccc2ccc3c(c2c1)C(c1c(F)cccc1Cl)C(C#N)=C(N)O3 (stereo not shown) | 4.00 |
| CC[C@]1(O)C[C@@H]2CN(CCc3c([nH]c4ccccc34)[C@@](C(=O)OC)(c3cc4c(cc3OC)N(C)[C@H]3[C@@](O)(C(=O)OC)[C@H](OC(C)=O)[C@]5(CC)C=CCN6CC[C@]43[C@@H]65)C2)C1 [Vinblastine, reference compound] | 5.12 |
| COc1ccc2ccc3c(c2c1)C(c1c(Cl)cccc1Cl)C(C#N)=C(N)O3 (stereo not shown) | 4.38 |
| COc1ccc2ccc3c(c2c1)C(c1ccc(OC)c(OC)c1OC)C(C#N)=C(N)O3 (stereo not shown) | 4.02 |
| COc1ccc2ccc3c(c2c1)C(c1ccc(I)cc1)C(C#N)=C(N)O3 (stereo not shown) | 4.32 |
| COc1ccc2ccc3c(c2c1)C(c1ccc(C(F)(F)F)cc1)C(C#N)=C(N)O3 (stereo not shown) | 4.57 |
| COc1ccc2ccc3c(c2c1)C(c1ccccc1Br)C(C#N)=C(N)O3 (stereo not shown) | 5.08 |
| COc1ccc(C2C(C#N)=C(N)Oc3ccc4ccc(OC)cc4c32)c(OC)c1 (stereo not shown) | 4.00 |
| COc1ccc2ccc3c(c2c1)C(c1ccc(Cl)c(Cl)c1)C(C#N)=C(N)O3 (stereo not shown) | 5.64 |
| COc1ccc2ccc3c(c2c1)C(c1ccc(C)cc1)C(C#N)=C(N)O3 (stereo not shown) | 5.15 |
| COc1ccc2ccc3c(c2c1)C(c1cc(Br)cc(Br)c1)C(C#N)=C(N)O3 (stereo not shown) | 4.87 |
| COc1ccc2ccc3c(c2c1)C(c1ccc(F)cc1F)C(C#N)=C(N)O3 (stereo not shown) | 5.52 |
| COc1ccc2ccc3c(c2c1)C(c1cc(Cl)ccc1Cl)C(C#N)=C(N)O3 (stereo not shown) | 5.42 |
| COc1ccc2ccc3c(c2c1)C(c1ccccc1Cl)C(C#N)=C(N)O3 (stereo not shown) | 4.95 |
| COc1ccc2ccc3c(c2c1)C(c1ccc(Cl)cc1Cl)C(C#N)=C(N)O3 (stereo not shown) | 5.74 |
| COc1cccc2c1C(=O)c1c(O)c3c(c(O)c1C2=O)C[C@@](O)(C(=O)CO)C[C@@H]3O[C@H]1C[C@H](N)[C@H](O)[C@H](C)O1 [Doxorubicin, reference compound] | 6.10 |
| COc1ccc2ccc3c(c2c1)C(c1ccc(C(F)(F)F)cc1F)C(C#N)=C(N)O3 (stereo not shown) | 6.70 |
| COc1ccc2ccc3c(c2c1)C(c1cc(Br)ccc1Br)C(C#N)=C(N)O3 (stereo not shown) | 5.31 |
| COc1ccc2ccc3c(c2c1)C(c1ccc(OC)c(OC)c1)C(C#N)=C(N)O3 (stereo not shown) | 5.59 |
| COc1ccc2ccc3c(c2c1)C(c1ccc(F)cc1)C(C#N)=C(N)O3 (stereo not shown) | 4.78 |
| COc1ccc2ccc3c(c2c1)C(c1cc(Br)cc(Br)c1OC)C(C#N)=C(N)O3 (stereo not shown) | 5.24 |
| COc1ccc2ccc3c(c2c1)C(c1cccc(Cl)c1Cl)C(C#N)=C(N)O3 (stereo not shown) | 5.04 |
| COc1ccc2ccc3c(c2c1)C(c1c(F)cccc1F)C(C#N)=C(N)O3 (stereo not shown) | 4.81 |
